Here the recorded MBC is given for each entry.
# Test system: Escherichia coli
# Protocol Summary: Antibacterial activity against Escherichia coli ATCC 35210 after 72 hrs by serial sub-cultivation method
# Format: functional
# Experimental Context: ATCC 35210, 72 h

// lookup MBC for "COc1ccc(/C=C2\S/C(=N\c3nc(C45CC6CC(CC(C6)C4)C5)cs3)NC2=O)cc1"
23.1 µM

// lookup MBC for "O=C1N/C(=N/c2nc(C34CC5CC(CC(C5)C3)C4)cs2)S/C1=C\c1ccccc1[N+](=O)[O-]"
43 µM

// lookup MBC for "O=C1N/C(=N/c2nc(C34CC5CC(CC(C5)C3)C4)cs2)S/C1=C\c1ccc(O)cc1"
45.8 µM

Next:
// lookup MBC for "O=C1N/C(=N/c2nc(C34CC5CC(CC(C5)C3)C4)cs2)S/C1=C\c1ccccc1Cl"
43.8 µM

// lookup MBC for CC1(C)S[C@@H]2[C@H](NC(=O)[C@H](N)c3ccccc3)C(=O)N2[C@H]1C(=O)O [AMPICILLIN]
492 µM
